Values from ChEMBL document CHEMBL5104118

SYSTEM NAME: Protein-glutamine gamma-glutamyltransferase (Homo sapiens)
Sequence (whole entry): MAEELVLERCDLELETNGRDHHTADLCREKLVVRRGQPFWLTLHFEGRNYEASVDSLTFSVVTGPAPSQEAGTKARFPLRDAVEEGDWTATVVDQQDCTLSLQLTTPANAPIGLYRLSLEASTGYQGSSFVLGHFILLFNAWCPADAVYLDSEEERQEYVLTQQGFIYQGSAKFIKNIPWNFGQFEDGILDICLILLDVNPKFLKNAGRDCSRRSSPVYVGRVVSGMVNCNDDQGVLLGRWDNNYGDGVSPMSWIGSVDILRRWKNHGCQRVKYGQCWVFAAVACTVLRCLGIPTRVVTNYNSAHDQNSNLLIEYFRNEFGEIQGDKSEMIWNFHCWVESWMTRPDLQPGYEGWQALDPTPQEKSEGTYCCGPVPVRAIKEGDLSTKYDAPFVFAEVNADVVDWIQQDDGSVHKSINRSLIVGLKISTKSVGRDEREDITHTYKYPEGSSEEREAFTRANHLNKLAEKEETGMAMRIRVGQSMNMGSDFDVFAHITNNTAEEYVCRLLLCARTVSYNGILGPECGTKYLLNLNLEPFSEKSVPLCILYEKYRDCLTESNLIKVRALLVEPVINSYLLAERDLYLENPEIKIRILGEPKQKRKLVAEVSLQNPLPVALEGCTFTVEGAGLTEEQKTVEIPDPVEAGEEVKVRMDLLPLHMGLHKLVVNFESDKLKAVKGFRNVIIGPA
ASSAY: Inhibition of recombinant human TG2 expressed in Escherichia coli assessed as Kinact using Cbz-Glu(gamma-p-nitrophenyl ester)Gly (AL5) as substrate by colorimetric assay
MEASURED METRIC: Kinact

Which Kinact is reported for this compound? C=CC(=O)NCCCCCC(=O)N1CCN(S(=O)(=O)c2cccc3c(N(C)C)cccc23)CC1
0.23 min⁻¹

Please answer likewise for C=CC(=O)NCCCCCC(=O)N1CCN(C(=O)c2cccc3ccccc23)CC1
0.46 min⁻¹

// moving on: another record for Kinact
Which Kinact is reported for this compound? C=CC(=O)NCCCC(=O)N1CCN(C(=O)c2cccc3ccccc23)CC1
0.45 min⁻¹
